test system: HOP-62 NSCLC; test: NCI-60 one-dose screen, 48 h; conditions: 10 µM unless noted
This is part of a sample that, as a whole, favours compounds with a hit. Of some 83,000 tested, about 20% had one in any assay. Activity calls are given as the source filed them. How the source made its calls: active means growth percent below 10; inactive means the rest.
Answer with one of the outcomes given here: true (1) (active), false (0) (inactive)

How was O=C(N/N=C\c1cccc([N+](=O)[O-])c1)N/N=C/c1cccc([N+](=O)[O-])c1 classified in this test?
false (0)

Please let me know the test result on file for CN(CCCNC(=O)CCOCCOCCOCCNC(=O)Cc1ccc2ccc3cccc4ccc1c2c34)CCCNc1cc(-c2ccc3ccccc3c2)nc2ccccc12 .
true (1)

Entry CC/C(Cc1ccccc1)=C(\c1ccc(OCCCN(C)C)cc1)c1ccc(OC(=O)NCc2ccccc2)cc1 : call = ?
false (0)

Kindly provide the recorded test outcome for the following compound: COc1cc(C(=O)n2nc(N3CCOCC3)c3cc(-n4cccc4)ccc32)cc(OC)c1OC
false (0)
